Biological target: NLRP3 (Homo sapiens)
Sequence (Q96P20 whole entry): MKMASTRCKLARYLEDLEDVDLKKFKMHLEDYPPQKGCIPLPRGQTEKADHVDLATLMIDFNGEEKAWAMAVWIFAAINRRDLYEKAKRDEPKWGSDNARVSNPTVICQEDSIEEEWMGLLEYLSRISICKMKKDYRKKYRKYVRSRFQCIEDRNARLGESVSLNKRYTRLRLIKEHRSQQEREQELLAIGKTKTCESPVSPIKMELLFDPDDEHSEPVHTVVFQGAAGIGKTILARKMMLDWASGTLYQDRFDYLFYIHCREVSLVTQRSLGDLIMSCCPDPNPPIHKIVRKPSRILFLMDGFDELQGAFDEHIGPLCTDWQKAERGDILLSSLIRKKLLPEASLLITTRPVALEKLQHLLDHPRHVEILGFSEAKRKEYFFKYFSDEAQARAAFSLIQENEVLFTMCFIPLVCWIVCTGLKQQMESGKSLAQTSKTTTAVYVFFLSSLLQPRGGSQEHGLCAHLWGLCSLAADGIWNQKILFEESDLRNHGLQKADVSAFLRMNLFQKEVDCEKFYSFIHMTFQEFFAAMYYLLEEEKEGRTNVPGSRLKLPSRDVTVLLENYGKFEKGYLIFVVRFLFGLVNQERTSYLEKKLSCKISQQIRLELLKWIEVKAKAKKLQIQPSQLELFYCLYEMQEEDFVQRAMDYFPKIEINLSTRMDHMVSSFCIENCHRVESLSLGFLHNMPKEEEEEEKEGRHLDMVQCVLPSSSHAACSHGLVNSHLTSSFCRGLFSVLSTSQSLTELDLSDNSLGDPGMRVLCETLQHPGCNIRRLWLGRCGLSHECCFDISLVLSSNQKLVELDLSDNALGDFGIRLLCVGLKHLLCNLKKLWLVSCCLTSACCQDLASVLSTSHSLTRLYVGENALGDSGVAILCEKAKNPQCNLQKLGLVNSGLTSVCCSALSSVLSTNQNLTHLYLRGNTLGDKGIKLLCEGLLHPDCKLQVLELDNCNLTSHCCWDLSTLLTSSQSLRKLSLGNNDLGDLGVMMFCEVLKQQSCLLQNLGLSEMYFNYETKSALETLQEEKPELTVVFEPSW
Experiment: THP-1 cells pyroptosis assay (LPS priming, nigericin, resazurin read-out)
Type: cell-based
Design: Seed THP-1 cells (25,000 cells/well) containing 1.0 μg/ml LPS; host or cells: THP-1 cells
Conditions: 1.0 μg/ml LPS, 5 μM nigericin
Field 'label' (enum: yes / no). Set to yes when IC50 is strictly under 30 nM; else no.

[in] Confirm or reject: IC50 of Cc1nc(NC2CCC3CCCN3C2)nnc1-c1ccc(C(F)(F)F)cc1O (single isomer, unassigned) [Example 31] lies strictly below 30 nM
[out] no

[in] Confirm or reject: IC50 of `CCN1CCC[C@@H](Nc2nnc(-c3ccc(C#N)cc3O)c(C)n2)C1` lies strictly below 30 nM
[out] yes

[in] Confirm or reject: IC50 of `CCN1C[C@@H](O)C[C@@H](Nc2nnc(-c3c(C)cc(C(F)(F)F)cc3O)c(C)n2)C1` lies strictly below 30 nM
[out] no

[in] Confirm or reject: IC50 of Cc1nc(NC2CCC3CCCN3C2)nnc1-c1ccc(C(F)(F)F)cc1O (single isomer, unassigned) [Example 34] lies strictly below 30 nM
[out] no

[in] Confirm or reject: IC50 of `Cc1nc(N[C@@H]2CCCN(C)C2)nnc1-c1ccc(F)cc1O` lies strictly below 30 nM
[out] yes

[in] Confirm or reject: IC50 of `CCN1C[C@@H](O)C[C@@H](Nc2nnc(-c3ccc(C(F)(F)F)cc3O)c(C)n2)C1` lies strictly below 30 nM
[out] no

[in] Confirm or reject: IC50 of Cc1nc(N[C@@H]2CCCN(C(C)(C)C)C2)nnc1-c1ccc(C(F)(F)F)cc1O (single isomer, unassigned) lies strictly below 30 nM
[out] no

[in] Confirm or reject: IC50 of Cc1nc(NC2CCCn3ccnc32)nnc1-c1ccc(C(F)(F)F)cc1O (centres unmarked) lies strictly below 30 nM
[out] no

[in] Confirm or reject: IC50 of `Cc1nc(N[C@@H]2CCCC[C@H]2O)nnc1-c1ccc(C(F)(F)F)cc1O` lies strictly below 30 nM
[out] no

[in] Confirm or reject: IC50 of `Cc1nc(N[C@H]2C[C@@](C)(O)C2)nnc1-c1ccc(C(F)(F)F)cc1O` lies strictly below 30 nM
[out] no

[in] Confirm or reject: IC50 of `CCN1CCC[C@@H](Nc2ncc(-c3c(C)cc(C(F)(F)F)cc3O)nn2)C1` lies strictly below 30 nM
[out] yes

[in] Confirm or reject: IC50 of `CCN1CCC[C@@H](Nc2nnc(-c3ccc(Cl)cc3O)c(C)n2)C1` lies strictly below 30 nM
[out] yes

[in] Confirm or reject: IC50 of `CCN1CCC[C@@H](Nc2nnc(-c3ccc(C(F)(F)F)cc3O)c(C(F)(F)F)n2)C1` lies strictly below 30 nM
[out] no

[in] Confirm or reject: IC50 of `CCN1CCC[C@@H](Nc2nnc(-c3ccc(OC(F)(F)F)cc3O)c(C)n2)C1` lies strictly below 30 nM
[out] yes

[in] Confirm or reject: IC50 of `CCN1CCC[C@@H](Nc2nnc(-c3ccc4c(c3O)CCC4)c(C)n2)C1` lies strictly below 30 nM
[out] yes

[in] Confirm or reject: IC50 of `CCN1CCC[C@@H](Nc2nnc(-c3ccc4c(c3O)CC4)c(C)n2)C1` lies strictly below 30 nM
[out] yes

[in] Confirm or reject: IC50 of Cc1nc(NC2CCC3CCCN3C2)nnc1-c1ccc(C(F)(F)F)cc1O (single isomer, unassigned) [Example 32] lies strictly below 30 nM
[out] yes

[in] Confirm or reject: IC50 of `Cc1nc(N[C@@H]2CCCN(C)C2)nnc1-c1ccc(C(F)(F)F)cc1O` lies strictly below 30 nM
[out] yes

[in] Confirm or reject: IC50 of `CCN1CCC[C@@H](Nc2nnc(-c3ccc(C(F)(F)F)cc3O)c(C)n2)C1` lies strictly below 30 nM
[out] yes

[in] Confirm or reject: IC50 of Cc1nc(N[C@H]2CCCN3CCC[C@@H]23)nnc1-c1ccc(C(F)(F)F)cc1O (racemic) lies strictly below 30 nM
[out] yes

[in] Confirm or reject: IC50 of Cc1nc(NC2CCCN3CCCC23)nnc1-c1ccc(C(F)(F)F)cc1O (single isomer, unassigned) [Example 29] lies strictly below 30 nM
[out] no

[in] Confirm or reject: IC50 of `CCN1CCC[C@@H](Nc2nnc(-c3c(O)cc(C(F)(F)F)cc3F)c(C)n2)C1` lies strictly below 30 nM
[out] yes

[in] Confirm or reject: IC50 of `CCN1CCC[C@@H](Nc2nnc(-c3c(C)cc(C(F)(F)F)cc3O)c(C)n2)C1` lies strictly below 30 nM
[out] yes

[in] Confirm or reject: IC50 of Cc1nc(N[C@H]2CCCN3CCC[C@H]23)nnc1-c1ccc(C(F)(F)F)cc1O (racemic) lies strictly below 30 nM
[out] yes

[in] Confirm or reject: IC50 of `Cc1nc(N[C@@H]2CCCNC2)nnc1-c1ccc(C(F)(F)F)cc1O` lies strictly below 30 nM
[out] yes

[in] Confirm or reject: IC50 of `CCN1CCC[C@@H](Nc2nnc(-c3ccc(F)cc3O)c(C)n2)C1` lies strictly below 30 nM
[out] yes

[in] Confirm or reject: IC50 of Cc1nc(NC2CCC3CCCN3C2)nnc1-c1ccc(C(F)(F)F)cc1O (single isomer, unassigned) [Example 33] lies strictly below 30 nM
[out] no

[in] Confirm or reject: IC50 of `Cc1nc(N[C@@H]2CCCN(C)C2)nnc1-c1ccc(Cl)cc1O` lies strictly below 30 nM
[out] yes

[in] Confirm or reject: IC50 of `Cc1nc(N[C@@H]2C[C@H](F)CN(C)C2)nnc1-c1ccc(C(F)(F)F)cc1O` lies strictly below 30 nM
[out] no

[in] Confirm or reject: IC50 of Cc1nc(NC2CCCN3CCCC23)nnc1-c1ccc(C(F)(F)F)cc1O (single isomer, unassigned) [Example 28] lies strictly below 30 nM
[out] yes

[in] Confirm or reject: IC50 of `CCN1CCC[C@@H](Nc2nnc(-c3ccc4c(c3O)CCO4)c(C)n2)C1` lies strictly below 30 nM
[out] yes

[in] Confirm or reject: IC50 of Cc1nc(NC2CCCN(C(C)(C)C)C2)nnc1-c1ccc(C(F)(F)F)cc1O (single isomer, unassigned) lies strictly below 30 nM
[out] yes
